biological target: von Hippel-Lindau disease tumor suppressor/Polycomb protein EED (Homo sapiens, UniProt O75530+P40337); assay: PROTAC activity at PRC2 catalytic core EED/VHL (unknown origin) measured after 24 hrs by Western blot analysis
Sequence (O75530 whole entry): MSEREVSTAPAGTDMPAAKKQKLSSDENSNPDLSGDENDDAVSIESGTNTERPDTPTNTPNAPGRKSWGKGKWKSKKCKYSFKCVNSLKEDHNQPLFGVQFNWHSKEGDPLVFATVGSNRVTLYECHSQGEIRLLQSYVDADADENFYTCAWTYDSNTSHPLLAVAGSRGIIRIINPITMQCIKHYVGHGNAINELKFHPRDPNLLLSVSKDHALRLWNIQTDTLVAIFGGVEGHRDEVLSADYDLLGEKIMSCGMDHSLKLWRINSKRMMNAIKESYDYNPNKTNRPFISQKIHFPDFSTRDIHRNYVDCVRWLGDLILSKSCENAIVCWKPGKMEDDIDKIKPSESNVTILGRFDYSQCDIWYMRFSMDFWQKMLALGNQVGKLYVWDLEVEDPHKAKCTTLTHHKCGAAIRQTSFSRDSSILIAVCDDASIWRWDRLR
Sequence (P40337 whole entry): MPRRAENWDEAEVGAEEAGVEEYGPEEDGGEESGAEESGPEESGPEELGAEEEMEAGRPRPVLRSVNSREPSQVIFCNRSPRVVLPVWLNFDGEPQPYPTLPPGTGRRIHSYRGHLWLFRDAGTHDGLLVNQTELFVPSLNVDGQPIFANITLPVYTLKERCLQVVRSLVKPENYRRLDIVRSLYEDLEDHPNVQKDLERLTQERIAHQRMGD
readout: EC50 (nM)
One number for each entry, in nM.

Query: Consider the compound shown here: Cc1ncsc1-c1ccc(CNC(=O)[C@@H]2C[C@@H](O)CN2C(=O)[C@@H](NC(=O)CCCNC(=O)c2ccc(-c3cnc(NCc4ccco4)n4cnnc34)cc2)C(C)(C)C)cc1 What is its recorded EC50?
Result: 610

###

biological target: Bromodomain-containing protein 4 (Homo sapiens); test: Binding affinity to BRD4 BD1 domain (unknown origin)
readout: Kd (nM)
Give bare numbers, in nM.

Query: Give Kd (Bromodomain-containing protein 4 (Homo sapiens)) of the following molecule: CC(=O)N[C@H](C(=O)N1C[C@H](O)C[C@H]1C(=O)NCc1ccc(-c2scnc2C)cc1)C(C)(C)SCCCCCNC(=O)C[C@@H]1N=C(c2ccc(Cl)cc2)c2c(sc(C)c2C)-n2c(C)nnc21
Result: 75

###

target: Bromodomain-containing protein 3 (Homo sapiens); test: Binding affinity to BRD3 BD2 domain (unknown origin)
Sequence (Q15059 whole entry, the tested form may be a part): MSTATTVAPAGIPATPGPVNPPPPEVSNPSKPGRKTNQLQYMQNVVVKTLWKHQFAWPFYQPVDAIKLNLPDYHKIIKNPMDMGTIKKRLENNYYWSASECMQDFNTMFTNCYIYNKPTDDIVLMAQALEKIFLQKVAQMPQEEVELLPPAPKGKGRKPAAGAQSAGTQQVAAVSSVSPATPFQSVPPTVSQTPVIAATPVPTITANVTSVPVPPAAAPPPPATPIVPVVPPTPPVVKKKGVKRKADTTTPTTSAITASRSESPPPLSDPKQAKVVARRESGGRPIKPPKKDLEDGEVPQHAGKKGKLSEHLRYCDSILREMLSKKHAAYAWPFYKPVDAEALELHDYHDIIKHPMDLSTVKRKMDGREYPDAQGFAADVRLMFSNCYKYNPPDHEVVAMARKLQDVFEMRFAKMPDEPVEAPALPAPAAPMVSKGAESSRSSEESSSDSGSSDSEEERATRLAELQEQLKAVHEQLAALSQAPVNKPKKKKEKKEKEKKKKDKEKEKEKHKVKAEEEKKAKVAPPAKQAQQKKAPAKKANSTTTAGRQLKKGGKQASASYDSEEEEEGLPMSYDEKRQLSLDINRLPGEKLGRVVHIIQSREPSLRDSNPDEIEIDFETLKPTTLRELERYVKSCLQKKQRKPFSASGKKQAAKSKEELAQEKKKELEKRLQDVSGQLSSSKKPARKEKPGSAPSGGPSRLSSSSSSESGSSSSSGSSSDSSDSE
readout: Kd (nM)
Give bare numbers, in nM.

Query: Consider the compound shown here: CC(=O)N[C@H](C(=O)N1C[C@H](O)C[C@H]1C(=O)NCc1ccc(-c2scnc2C)cc1)C(C)(C)SCCCCCNC(=O)C[C@@H]1N=C(c2ccc(Cl)cc2)c2c(sc(C)c2C)-n2c(C)nnc21 What is its recorded Kd?
Result: 39

###

Consider the following molecules; for each one, report its Kd.
biological target: Bromodomain-containing protein 2 (Homo sapiens); assay: Binding affinity to BRD2 BD2 domain (unknown origin)
Sequence (P25440 whole entry, the tested form may be a part): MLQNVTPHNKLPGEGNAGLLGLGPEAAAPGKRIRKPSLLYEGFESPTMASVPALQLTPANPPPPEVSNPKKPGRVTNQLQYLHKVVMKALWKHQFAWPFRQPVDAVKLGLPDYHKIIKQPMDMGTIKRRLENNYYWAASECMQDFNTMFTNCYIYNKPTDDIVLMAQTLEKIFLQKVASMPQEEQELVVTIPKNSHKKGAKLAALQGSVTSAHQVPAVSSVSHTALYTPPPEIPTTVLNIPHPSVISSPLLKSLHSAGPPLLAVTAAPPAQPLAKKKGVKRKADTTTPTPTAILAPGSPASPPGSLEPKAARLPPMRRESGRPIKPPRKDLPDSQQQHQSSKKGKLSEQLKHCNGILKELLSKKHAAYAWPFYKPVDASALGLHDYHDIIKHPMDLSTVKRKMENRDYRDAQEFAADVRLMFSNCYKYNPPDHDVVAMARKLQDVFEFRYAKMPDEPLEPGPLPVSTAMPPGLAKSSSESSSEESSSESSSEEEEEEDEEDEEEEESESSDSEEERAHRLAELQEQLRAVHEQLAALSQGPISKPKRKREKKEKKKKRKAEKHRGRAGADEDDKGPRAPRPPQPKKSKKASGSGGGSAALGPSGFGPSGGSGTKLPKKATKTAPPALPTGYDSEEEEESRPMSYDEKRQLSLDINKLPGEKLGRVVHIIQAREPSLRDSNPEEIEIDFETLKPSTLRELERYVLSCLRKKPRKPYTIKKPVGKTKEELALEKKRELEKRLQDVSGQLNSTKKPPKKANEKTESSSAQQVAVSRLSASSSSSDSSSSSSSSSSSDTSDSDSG
Give bare numbers, in nM.

{"columns": ["molecule", "Kd / nM"],
 "data": [
  ["CC(=O)N[C@H](C(=O)N1C[C@H](O)C[C@H]1C(=O)NCc1ccc(-c2scnc2C)cc1)C(C)(C)SCCCCCNC(=O)C[C@@H]1N=C(c2ccc(Cl)cc2)c2c(sc(C)c2C)-n2c(C)nnc21", 94]
]}

Shifting focus to the molecule that follows.
Query: Consider the molecule shown here: Cc1ncsc1-c1ccc([C@H](C)NC(=O)[C@@H]2C[C@@H](O)CN2C(=O)C(NC(=O)COCCCOCCNC(=O)C[C@@H]2N=C(c3ccc(Cl)cc3)c3c(sc(C)c3C)-n3c(C)nnc32)C(C)(C)C)cc1 (single isomer, unassigned) What is its recorded Kd?
Result: 4.7

###

biological target: von Hippel-Lindau disease tumor suppressor/SWI/SNF-related matrix-associated actin-dependent regulator of chromatin subfamily A member 2 (Homo sapiens, UniProt P40337+P51531); assay: PROTAC activity at SMARCA2/VHL in human MV4-11 cells assessed as degradation protein measured after 18 hrs; type: cell-based
Sequence (P51531 whole entry, one chain of several): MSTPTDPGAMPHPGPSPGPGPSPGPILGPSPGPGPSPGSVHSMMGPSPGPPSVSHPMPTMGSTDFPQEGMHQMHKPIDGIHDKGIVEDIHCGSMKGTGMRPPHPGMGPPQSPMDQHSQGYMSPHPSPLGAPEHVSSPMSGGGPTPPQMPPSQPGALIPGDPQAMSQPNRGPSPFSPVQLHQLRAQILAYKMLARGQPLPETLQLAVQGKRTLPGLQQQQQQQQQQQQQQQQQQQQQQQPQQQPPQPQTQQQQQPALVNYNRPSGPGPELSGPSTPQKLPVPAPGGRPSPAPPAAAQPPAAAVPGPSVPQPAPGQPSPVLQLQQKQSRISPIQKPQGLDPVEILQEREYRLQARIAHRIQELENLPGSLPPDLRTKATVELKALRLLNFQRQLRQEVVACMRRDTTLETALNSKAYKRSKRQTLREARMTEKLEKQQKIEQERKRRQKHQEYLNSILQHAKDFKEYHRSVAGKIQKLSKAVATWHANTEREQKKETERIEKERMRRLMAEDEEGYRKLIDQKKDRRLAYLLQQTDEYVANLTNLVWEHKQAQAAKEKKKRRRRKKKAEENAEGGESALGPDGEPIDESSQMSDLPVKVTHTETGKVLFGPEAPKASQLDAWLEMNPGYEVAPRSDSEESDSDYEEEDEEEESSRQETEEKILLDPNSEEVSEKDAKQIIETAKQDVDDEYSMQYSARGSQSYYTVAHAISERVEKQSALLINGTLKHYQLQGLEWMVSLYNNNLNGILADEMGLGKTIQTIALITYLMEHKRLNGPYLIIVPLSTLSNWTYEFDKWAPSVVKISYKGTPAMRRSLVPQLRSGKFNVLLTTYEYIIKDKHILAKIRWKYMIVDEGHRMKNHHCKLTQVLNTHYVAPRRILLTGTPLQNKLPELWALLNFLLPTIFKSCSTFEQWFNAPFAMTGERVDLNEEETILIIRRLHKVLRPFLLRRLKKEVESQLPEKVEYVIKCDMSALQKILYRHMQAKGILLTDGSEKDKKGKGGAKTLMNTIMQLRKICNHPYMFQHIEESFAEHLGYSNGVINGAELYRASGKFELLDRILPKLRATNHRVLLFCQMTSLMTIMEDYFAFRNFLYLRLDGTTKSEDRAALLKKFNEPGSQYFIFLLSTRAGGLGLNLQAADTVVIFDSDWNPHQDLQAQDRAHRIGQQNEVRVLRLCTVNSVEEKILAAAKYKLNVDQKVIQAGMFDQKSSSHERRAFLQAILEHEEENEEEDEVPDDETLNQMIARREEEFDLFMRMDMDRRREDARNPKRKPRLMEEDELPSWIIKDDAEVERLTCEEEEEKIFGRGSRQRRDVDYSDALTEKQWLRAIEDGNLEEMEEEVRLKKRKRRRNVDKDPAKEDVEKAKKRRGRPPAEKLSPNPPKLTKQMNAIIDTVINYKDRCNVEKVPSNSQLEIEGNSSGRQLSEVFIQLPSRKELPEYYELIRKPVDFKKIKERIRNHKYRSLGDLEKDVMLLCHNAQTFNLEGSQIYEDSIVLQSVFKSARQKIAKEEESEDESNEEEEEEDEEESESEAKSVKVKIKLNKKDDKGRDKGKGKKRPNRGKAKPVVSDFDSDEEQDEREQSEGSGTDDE
readout: pEC50
Numbers only, as −log10 of the molar value.

Query: Consider the molecule shown here: Cc1ncsc1-c1ccc(CNC(=O)[C@H]2C[C@H](O)CN2C(=O)[C@H](NC(=O)C2(F)CC2)C(C)(C)C)c(OCCOc2ccc(CN3CCN(c4cc(-c5ccccc5O)nnc4N)CC3)cc2)c1 What is its recorded pEC50?
Result: 8.22

###

target: Polycomb protein EED (Homo sapiens)
Consider the following compounds; for each one, report its Kd.
Numbers only, in nM.

{"columns": ["substance_smiles", "measurement_unit", "Kd"],
 "data": [
  ["CNC(=O)CCc1ccc(-c2cnc(NCc3c(F)ccc4c3CCO4)n3cnnc23)c(C)n1", "nM", 0.245],
  ["Cc1nc(CCC(=O)NCCOc2ccc(OCC(=O)N[C@@H](C(=O)N3C[C@H](O)C[C@H]3C(=O)NCc3ccc(-c4scnc4C)cc3)C(C)(C)C)cc2)ccc1-c1cnc(NCc2c(F)ccc3c2CCO3)n2cnnc12", "nM", 0.955]
]}

Shifting focus to the compound that follows.
Query: Give Kd (Polycomb protein EED (Homo sapiens)) of the following compound: Cc1nc(CCC(=O)NCCCCC(=O)N[C@@H](C(=O)N2C[C@H](O)C[C@H]2C(=O)NCc2ccc(-c3scnc3C)cc2)C(C)(C)C)ccc1-c1cnc(NCc2c(F)ccc3c2CCO3)n2cnnc12
Result: 0.537
